Listed below: STK11 functional score values for each entry.
B1: library; numbered along this chain (parent)
chain: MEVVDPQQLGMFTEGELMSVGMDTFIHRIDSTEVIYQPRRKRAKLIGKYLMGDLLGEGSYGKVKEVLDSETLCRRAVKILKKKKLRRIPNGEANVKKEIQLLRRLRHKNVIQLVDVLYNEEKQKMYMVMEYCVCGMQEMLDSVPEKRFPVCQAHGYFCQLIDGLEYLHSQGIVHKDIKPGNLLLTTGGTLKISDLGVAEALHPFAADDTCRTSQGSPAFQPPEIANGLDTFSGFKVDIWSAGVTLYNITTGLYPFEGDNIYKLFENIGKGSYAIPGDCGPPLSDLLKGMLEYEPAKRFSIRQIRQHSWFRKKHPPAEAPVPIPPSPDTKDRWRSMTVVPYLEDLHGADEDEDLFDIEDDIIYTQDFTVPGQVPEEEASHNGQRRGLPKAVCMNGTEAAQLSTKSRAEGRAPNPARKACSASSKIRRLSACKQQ

- Variants of: B1
- ASSAY PROCEDURE: STK11 functional score (HeLa growth suppression), rescaled enrichment; synonymous median = 1, nonsense median = 0 (normalised score)
- SETTINGS: with HeLa; variant type: missense
MEASURE NAME: STK11 functional score

R74P; 1.27
R147E; -0.0954
S216V; 0.614
P222F; 0.44
C391M; 1.62
G15V; 1.1
G15R; 1.4
P326V; 0.813
Y340I; 0.334
K81Q; 0.882
I111S; 0.535
T230Q; 1.39
H306S; 1.53
D237E; 0.97
I224Q; 0.698
H107M; 0.523
P221Y; -0.0979
V368T; 1.56
R75A; 1.68
S404H; 1.6
A377T; 1.59
D330T; 1.59
V372L; 1.4
L195W; 0.87
P369G; 1.56
W332Q; 1.55
G276E; 1.57
E374H; 1.06
P203R; 1.01
S422T; 0.705
C210I; 1.12
T185H; 0.484
Q214Y; 1.19
A218G; 0.816
Q100R; 1.34
D284M; 1.19
L183H; 1.43
E317M; 0.316
K311H; 0.501
Y272N; 1.71
T24P; 1.65
V63M; 0.802
Q37P; 1.16
V173A; 0.314
I88D; 1.58
P321W; 1.6
I360G; 1.44
K108I; 1.43
S421V; 1.38
N247I; 1.16
P294V; 1.36
S404F; 0.794
E121T; 1.13
L285W; -0.0646
V66L; 1.1
E130F; 0.993
S31R; 1.54
L290C; 1.06
D330C; 1.33
G135F; 1.09
E145I; 1.14
R425N; 1.62
E265G; 0.962
A198Y; 1.04
D68L; 0.441
H168F; 0.851
I260G; 1.1
L184I; 0.978
T367A; 1.39
L50T; 1.29
K269G; 1.46
W332V; 1.59
D53W; 0.204
N266L; 0.675
C418H; 1.17
I238R; -0.17
Q305D; 1.36
P339W; 1.6
E375Y; 1.52
H345F; 1.41
E376T; 1.55
P315Q; 1.34
L182G; 0.327
V337D; 1.2
G394V; 1.29
F234Y; 0.805
A397F; 1.35
V116I; 0.327
P323R; 1.01
K416M; 1.67
E121K; 0.738
